Recorded values, source patent US11827701B2.

biological target: T1, eukaryotically produced human IL-6 (Homo sapiens, UniProt P05231); test: Surface plasmon resonance (Biacore), eukaryotically produced human IL-6 coated on CM5 chip; assay type: binding; settings: euk; periplasmic fractions, 29B11 chain shuffled
T1 construct: purchased Humanzyme HZ-1044; host or cells: Human Embryonic kidney cells
T1 sequence (P05231 30-212): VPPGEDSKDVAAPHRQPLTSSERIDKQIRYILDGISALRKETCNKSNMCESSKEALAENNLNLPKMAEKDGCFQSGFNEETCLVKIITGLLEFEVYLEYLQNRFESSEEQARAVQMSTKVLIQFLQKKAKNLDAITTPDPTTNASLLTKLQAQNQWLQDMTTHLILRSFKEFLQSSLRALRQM

>  <MOLECULE>
55H1c: 29B11 chain shuffled Fab, periplasmic fraction (antibody, V domains shown) VH: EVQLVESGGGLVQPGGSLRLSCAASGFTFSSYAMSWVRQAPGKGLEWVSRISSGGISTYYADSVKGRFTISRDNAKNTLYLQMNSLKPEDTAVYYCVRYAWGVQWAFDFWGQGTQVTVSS VL: AQSVVTQPPSVSGSPGKTVTISCAGTSSDVGYGNYVSWYQQLPGMAPKLLIYDVSKRASGIADRFSGSKSGNTASLTISGLQSEDEADYVCASYRRGGTAVFGGGTHLTVLG

>  <kd, s⁻¹>
0.000111

$$$$
>  <MOLECULE>
47C2 (R4): 29B11 chain shuffled Fab, periplasmic fraction (antibody, listed as Lama glama, V domains shown) VH: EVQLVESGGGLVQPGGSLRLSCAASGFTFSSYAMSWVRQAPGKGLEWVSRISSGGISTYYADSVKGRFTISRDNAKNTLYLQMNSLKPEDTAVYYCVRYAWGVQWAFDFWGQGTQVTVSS VL: ALSYDLTQPPSVSGSPGKTVTISCAGTSSDVGYGNYVSWYQQLPGMAPKILIYDVNKRASGIADRFSGSKSGNTASLTISGLQSEDEADYYCASYRRGETIVFGGGTHLTVLG

>  <kd, s⁻¹>
0.00024

$$$$
>  <MOLECULE>
29B11: antagonistic IL-6-specific Fab clone from immunized llama (antibody, listed as Lama glama, V domains shown) VH: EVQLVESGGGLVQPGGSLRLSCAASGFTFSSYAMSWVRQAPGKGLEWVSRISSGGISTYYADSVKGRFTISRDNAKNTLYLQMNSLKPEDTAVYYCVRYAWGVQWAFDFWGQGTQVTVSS VL: QSVLTQPPSVSGSPGQTVTISCAGTSEDVGYGNYVSWYQQLPGMAPKLLIYDVNKRASGIADRFSGSKSGNTASLTISGLQSEDEADYYCASYRRTIDNIFGGGTHLTVLG

>  <kd, s⁻¹>
0.000102

$$$$
>  <MOLECULE>
55C1a: 29B11 chain shuffled Fab, periplasmic fraction (antibody, V domains shown) VH: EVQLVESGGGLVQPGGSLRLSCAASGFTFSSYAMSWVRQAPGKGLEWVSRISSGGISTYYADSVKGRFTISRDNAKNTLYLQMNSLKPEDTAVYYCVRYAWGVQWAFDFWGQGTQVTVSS VL: ALNFMLTQPPSVSGSPGKTVTISCAGTSSDVGYGNYVSWYQQLPGTAPKLLIYNVNKRASGITDRFSGSKSGNTASLTISGLQSEDEADYYCASYRTGDNAAFGGGTKLTVLG

>  <kd, s⁻¹>
7.93e-05

$$$$
>  <MOLECULE>
55E2b: 29B11 chain shuffled Fab, periplasmic fraction (antibody, V domains shown) VH: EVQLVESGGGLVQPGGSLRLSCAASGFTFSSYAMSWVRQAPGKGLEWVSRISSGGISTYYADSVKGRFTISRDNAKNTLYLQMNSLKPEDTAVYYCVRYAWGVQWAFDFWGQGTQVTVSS VL: AQSVLTQPPSVSGSPGKTVTISCAGTSSDVGYGNYVSWYQQLPGMAPKLLIYDVNKRASGIADRFSGSKFANTASLTISGLQSEDEADYYCASYKRGDNAVFGGGTKLTVLG

>  <kd, s⁻¹>
6.53e-05

$$$$
